- Assay procedure: chemical genetic growth profiling, strain panel (AID 1159580);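 further: tested at 20 µM; growth read once vehicle control cultures reached saturation at 30 °C; lower values mean less growth of the strain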
- Recorded conditions: S. cerevisiae deletion strains, growth OD, locus YKL085W, strain MDH1
Among all 5,500 compounds or so, about 2,000 (36%) were called active. About 18% were inconclusive and are not listed. No stated cut-off is given here; in the data, active means normalized growth mostly below about 0.91 (no sharp cut-off); inconclusive means no clear call, values can overlap the other calls; inactive means mostly above about 0.92. The list shows a part of the results.
Just give me one of these, please: active, inactive

COP(N)(=O)SC (stereo unspecified)
inactive
COc1ccc(-c2cc(=O)c3c(O)c(OC)c(OC)cc3o2)cc1O
inactive
COc1cc(O)c2c(=O)cc(-c3ccc(OC)c(-c4c(O)cc(O)c5c(=O)cc(-c6ccc(O)cc6)oc45)c3)oc2c1
inactive
COc1ccc(-c2cc(=O)c3c(O)cc(O)cc3o2)cc1
inactive
CO[C@@H]1C[C@H](O[C@H]2CC[C@]3(C)C4CC[C@]5(C)[C@@H](C6=CC(=O)OC6)CC[C@]5(O)[C@@H]4CC[C@]3(O)C2)O[C@H](C)[C@@H]1O (stereo partly specified)
active

Now turn to the next compound.
Query: For `COc1ccc(-c2cc(=O)c3c(O)cc(O)c(-c4cc(-c5cc(=O)c6c(O)cc(O)cc6o5)ccc4OC)c3o2)cc1` , what call appears in the results of this test?
Reply: inactive
